Organism: Rattus norvegicus
ASSAY PROTOCOL: Open TG-GATES - Regimen: Single
Assay type: toxicity, organism-based, Sprague-Dawley
Set-up: regimen Single, gender Male, age 6 weeks
EXPERIMENTAL SETUP: in vivo, po, 300 mg/kg, 9 h, tissue Plasma, route gavage, dose level Middle
List of IP values.
RECORDED ENDPOINT: IP

• CNC(=C[N+](=O)[O-])NCCSCc1ccc(CN(C)C)o1 = 8.4 mg/dL
• Cc1nnc2n1-c1ccc(Cl)cc1C(c1ccccc1Cl)=NC2 = 10.6 mg/dL
• COC(=O)C1=C(C)NC(C)=C(C(=O)OC)C1c1ccccc1[N+](=O)[O-] = 11.1 mg/dL
• CN/C(=N/CCSCc1nc[nH]c1C)NC#N = 10.3 mg/dL
• O=C(OC[C@H]1O[C@@H](OC(=O)c2cc(O)c(O)c(OC(=O)c3cc(O)c(O)c(O)c3)c2)[C@H](OC(=O)c2cc(O)c(O)c(OC(=O)c3cc(O)c(O)c(O)c3)c2)[C@@H](OC(=O)c2cc(O)c(O)c(OC(=O)c3cc(O)c(O)c(O)c3)c2)[C@@H]1OC(=O)c1cc(O)c(O)c(OC(=O)c2cc(O)c(O)c(O)c2)c1)c1cc(O)c(O)c(OC(=O)c2cc(O)c(O)c(O)c2)c1 = 10 mg/dL

---

Species: Rattus norvegicus
ASSAY PROTOCOL: Open TG-GATES - Regimen: Single
Assay type: toxicity, organism-based, Sprague-Dawley
Set-up: regimen Single, gender Male, age 6 weeks
EXPERIMENTAL SETUP: in vivo, po, 100 mg/kg, 6 h, tissue Plasma, route gavage, dose level Low
List of RALB values.
RECORDED ENDPOINT: RALB (g/dL)

* CN/C(=N/CCSCc1nc[nH]c1C)NC#N [CIMETIDINE] | 3.4
* CNC(=C[N+](=O)[O-])NCCSCc1ccc(CN(C)C)o1 [RANITIDINE] | 3.4
* Cc1nnc2n1-c1ccc(Cl)cc1C(c1ccccc1Cl)=NC2 [TRIAZOLAM] | 2.5

---

List of RALB values.
Organism: Rattus norvegicus
ASSAY PROTOCOL: Open TG-GATES - Regimen: Single
Assay type: toxicity, organism-based, Sprague-Dawley
Parameters: regimen Single, gender Male, age 6 weeks
EXPERIMENTAL SETUP: in vivo, po, 0 mg/kg, 9 h, tissue Plasma, route gavage, dose level Control
RECORDED ENDPOINT: RALB (g/dL)

- CN(C)CCC(c1ccc(Cl)cc1)c1ccccn1 (configuration not stated): 2.5
- NC1=NC(=O)C(c2ccccc2)O1 (configuration not stated): 2.7
- O=C(OC[C@H]1O[C@@H](OC(=O)c2cc(O)c(O)c(OC(=O)c3cc(O)c(O)c(O)c3)c2)[C@H](OC(=O)c2cc(O)c(O)c(OC(=O)c3cc(O)c(O)c(O)c3)c2)[C@@H](OC(=O)c2cc(O)c(O)c(OC(=O)c3cc(O)c(O)c(O)c3)c2)[C@@H]1OC(=O)c1cc(O)c(O)c(OC(=O)c2cc(O)c(O)c(O)c2)c1)c1cc(O)c(O)c(OC(=O)c2cc(O)c(O)c(O)c2)c1: 3.6
- CNC(=C[N+](=O)[O-])NCCSCc1ccc(CN(C)C)o1: 3.4
- Cc1nnc2n1-c1ccc(Cl)cc1C(c1ccccc1Cl)=NC2: 2.4
- CN1C(=O)CCS(=O)(=O)C1c1ccc(Cl)cc1 (configuration not stated): 2.6
- CCOc1ccc(NC(C)=O)cc1: 2.5

---

Organism: Rattus norvegicus
ASSAY PROTOCOL: Open TG-GATES - Regimen: Daily Repeat
Format: toxicity, organism-based, Sprague-Dawley
Set-up: regimen Daily Repeat, gender Male, age 6 weeks
EXPERIMENTAL SETUP: in vivo, po, 0 mg/kg, […], tissue Blood, route gavage, dose level Control, time 14 day
RECORDED ENDPOINT: Neu (%)

* NC1=NC(=O)C(c2ccccc2)O1 (stereo unspecified) | 21.4
* CC(C)NNC(=O)c1ccncc1 | 13.4
* CNC(=C[N+](=O)[O-])NCCSCc1ccc(CN(C)C)o1 | 19.2
* CN(C)CCC(c1ccc(Cl)cc1)c1ccccn1 (stereo unspecified) | 18.8
* Brc1ccccc1 | 19
* CN/C(=N/CCSCc1nc[nH]c1C)NC#N | 16.8

---

Species on record: Rattus norvegicus
ASSAY PROTOCOL: Open TG-GATES - Regimen: Single
Assay type: toxicity, organism-based, Sprague-Dawley
Parameters: regimen Single, gender Male, age 6 weeks
EXPERIMENTAL SETUP: in vivo, po, 100 mg/kg, 3 h, tissue Blood, route gavage, dose level Low
RECORDED ENDPOINT: Mono (%)

* O=C(OC[C@H]1O[C@@H](OC(=O)c2cc(O)c(O)c(OC(=O)c3cc(O)c(O)c(O)c3)c2)[C@H](OC(=O)c2cc(O)c(O)c(OC(=O)c3cc(O)c(O)c(O)c3)c2)[C@@H](OC(=O)c2cc(O)c(O)c(OC(=O)c3cc(O)c(O)c(O)c3)c2)[C@@H]1OC(=O)c1cc(O)c(O)c(OC(=O)c2cc(O)c(O)c(O)c2)c1)c1cc(O)c(O)c(OC(=O)c2cc(O)c(O)c(O)c2)c1 | 5.8
* Cc1nnc2n1-c1ccc(Cl)cc1C(c1ccccc1Cl)=NC2 | 3
* CNC(=C[N+](=O)[O-])NCCSCc1ccc(CN(C)C)o1 | 2.8
* CN/C(=N/CCSCc1nc[nH]c1C)NC#N | 2.8
* COC(=O)C1=C(C)NC(C)=C(C(=O)OC)C1c1ccccc1[N+](=O)[O-] | 4.4

---

Species: Rattus norvegicus
ASSAY PROTOCOL: Open TG-GATES - Regimen: Daily Repeat
Type: toxicity, organism-based, Sprague-Dawley
Design: regimen Daily Repeat, gender Male, age 6 weeks
EXPERIMENTAL SETUP: in vivo, po, 300 mg/kg, 72 h, tissue Blood, route gavage, dose level Middle, time 3 day
RECORDED ENDPOINT: Eos

* Cc1nnc2n1-c1ccc(Cl)cc1C(c1ccccc1Cl)=NC2 | 1%
* COC(=O)C1=C(C)NC(C)=C(C(=O)OC)C1c1ccccc1[N+](=O)[O-] | 1%
* O=C(OC[C@H]1O[C@@H](OC(=O)c2cc(O)c(O)c(OC(=O)c3cc(O)c(O)c(O)c3)c2)[C@H](OC(=O)c2cc(O)c(O)c(OC(=O)c3cc(O)c(O)c(O)c3)c2)[C@@H](OC(=O)c2cc(O)c(O)c(OC(=O)c3cc(O)c(O)c(O)c3)c2)[C@@H]1OC(=O)c1cc(O)c(O)c(OC(=O)c2cc(O)c(O)c(O)c2)c1)c1cc(O)c(O)c(OC(=O)c2cc(O)c(O)c(O)c2)c1 | 1%
* CNC(=C[N+](=O)[O-])NCCSCc1ccc(CN(C)C)o1 | 1%
* CN/C(=N/CCSCc1nc[nH]c1C)NC#N | 1%
* CCOc1ccc(NC(C)=O)cc1 | 1.2%

---

Organism: Rattus norvegicus
ASSAY PROTOCOL: Open TG-GATES - Regimen: Daily Repeat
Type: toxicity, organism-based, Sprague-Dawley
Design: regimen Daily Repeat, gender Male, age 6 weeks
EXPERIMENTAL SETUP: in vivo, po, 1000 mg/kg, […], tissue Blood, route gavage, dose level High, time 7 day
RECORDED ENDPOINT: APTT

• Cc1nnc2n1-c1ccc(Cl)cc1C(c1ccccc1Cl)=NC2 [TRIAZOLAM] = 17.8 s
• CCOc1ccc(NC(C)=O)cc1 [PHENACETIN] = 22.5 s
• O=C(OC[C@H]1O[C@@H](OC(=O)c2cc(O)c(O)c(OC(=O)c3cc(O)c(O)c(O)c3)c2)[C@H](OC(=O)c2cc(O)c(O)c(OC(=O)c3cc(O)c(O)c(O)c3)c2)[C@@H](OC(=O)c2cc(O)c(O)c(OC(=O)c3cc(O)c(O)c(O)c3)c2)[C@@H]1OC(=O)c1cc(O)c(O)c(OC(=O)c2cc(O)c(O)c(O)c2)c1)c1cc(O)c(O)c(OC(=O)c2cc(O)c(O)c(O)c2)c1 [TANNIC ACID] = 17.3 s

---

Species: Rattus norvegicus
ASSAY PROTOCOL: Open TG-GATES - Regimen: Single
Format: toxicity, organism-based, Sprague-Dawley
Set-up: regimen Single, gender Male, age 6 weeks
EXPERIMENTAL SETUP: in vivo, po, 100 mg/kg, 6 h, tissue Plasma, route gavage, dose level Low
RECORDED ENDPOINT: AST (IU/L)

* CN/C(=N/CCSCc1nc[nH]c1C)NC#N [CIMETIDINE] | 64
* CNC(=C[N+](=O)[O-])NCCSCc1ccc(CN(C)C)o1 [RANITIDINE] | 66.4
* COC(=O)C1=C(C)NC(C)=C(C(=O)OC)C1c1ccccc1[N+](=O)[O-] [NIFEDIPINE] | 82.2
* Cc1nnc2n1-c1ccc(Cl)cc1C(c1ccccc1Cl)=NC2 [TRIAZOLAM] | 69.8
* O=C(OC[C@H]1O[C@@H](OC(=O)c2cc(O)c(O)c(OC(=O)c3cc(O)c(O)c(O)c3)c2)[C@H](OC(=O)c2cc(O)c(O)c(OC(=O)c3cc(O)c(O)c(O)c3)c2)[C@@H](OC(=O)c2cc(O)c(O)c(OC(=O)c3cc(O)c(O)c(O)c3)c2)[C@@H]1OC(=O)c1cc(O)c(O)c(OC(=O)c2cc(O)c(O)c(O)c2)c1)c1cc(O)c(O)c(OC(=O)c2cc(O)c(O)c(O)c2)c1 [TANNIC ACID] | 70.4
